Test: Body and organ weights in C57BL/6 mice
Format: in vivo, mouse
Conditions: week 1, 50 mg/kg/week
Oligonucleotides are written 5' to 3', each unit as a sugar letter and its base; * is a phosphorothioate linkage, no mark a phosphodiester; rarer units and linkages stand in square brackets, end groups in braces. Plain capitals give the bases only. e = 2'-O-(2-methoxyethyl) (MOE); [5mC] = 5-methylcytosine; d = 2'-deoxy (DNA)
PROPERTY_LABEL: body weight (g)
Reply with just the number (in g).

Endpoint output: body weight of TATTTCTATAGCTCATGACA (antisense eT*eA*eT*eT*eT*d[5mC]*dT*dA*dT*dA*dG*d[5mC]*dT*d[5mC]*dA*eT*eG*eA*e[5mC]*eA) [ISIS 447144] . Value?
25

Endpoint output: body weight of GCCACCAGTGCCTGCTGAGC (antisense eG*e[5mC]*e[5mC]*eA*e[5mC]*d[5mC]*dA*dG*dT*dG*d[5mC]*d[5mC]*dT*dG*d[5mC]*eT*eG*eA*eG*e[5mC]) [ISIS 447143] . Value?
26

Endpoint output: body weight of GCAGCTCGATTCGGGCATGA (antisense eG*e[5mC]*eA*eG*e[5mC]*dT*d[5mC]*dG*dA*dT*dT*d[5mC]*dG*dG*dG*e[5mC]*eA*eT*eG*eA) [ISIS 447118] . Value?
24

Endpoint output: body weight of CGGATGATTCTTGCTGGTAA (antisense e[5mC]*eG*eG*eA*eT*dG*dA*dT*dT*d[5mC]*dT*dT*dG*d[5mC]*dT*eG*eG*eT*eA*eA) [ISIS 447114] . Value?
25

====

Kindly supply the reported NEFA % change over the baseline values for the records listed here.
Experiment: Plasma NEFA and 3-HB in C57BL/6 mice
Format: in vivo, mouse
Details: 50 mg/kg/week, 6 weeks
Oligonucleotides are written 5' to 3', each unit as a sugar letter and its base; * is a phosphorothioate linkage, no mark a phosphodiester; rarer units and linkages stand in square brackets, end groups in braces. Plain capitals give the bases only. e = 2'-O-(2-methoxyethyl) (MOE); [5mC] = 5-methylcytosine; d = 2'-deoxy (DNA)

Endpoint output: NEFA % change over the baseline of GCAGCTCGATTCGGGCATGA (antisense eG*e[5mC]*eA*eG*e[5mC]*dT*d[5mC]*dG*dA*dT*dT*d[5mC]*dG*dG*dG*e[5mC]*eA*eT*eG*eA) [ISIS 447118] . Value?
+90%

Endpoint output: NEFA % change over the baseline of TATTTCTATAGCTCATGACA (antisense eT*eA*eT*eT*eT*d[5mC]*dT*dA*dT*dA*dG*d[5mC]*dT*d[5mC]*dA*eT*eG*eA*e[5mC]*eA) [ISIS 447144] . Value?
+101%

Endpoint output: NEFA % change over the baseline of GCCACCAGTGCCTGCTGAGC (antisense eG*e[5mC]*e[5mC]*eA*e[5mC]*d[5mC]*dA*dG*dT*dG*d[5mC]*d[5mC]*dT*dG*d[5mC]*eT*eG*eA*eG*e[5mC]) [ISIS 447143] . Value?
+109%

Endpoint output: NEFA % change over the baseline of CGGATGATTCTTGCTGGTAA (antisense e[5mC]*eG*eG*eA*eT*dG*dA*dT*dT*d[5mC]*dT*dT*dG*d[5mC]*dT*eG*eG*eT*eA*eA) [ISIS 447114] . Value?
+144%
